Target: human ALK5 (Homo sapiens)
Construct: human ALK5 (recombinant TGF β1 N-term GST-tagged, 80-end); GST (N)
Test: ADP-GLO Kinases assay of ALK5 enzymatic activity
Conditions: purified recombinant human ALK5, TGFβ1 peptide substrate, pIC50 converted to pKi by Cheng-Prusoff, high ATP protocol (15 μM) for very potent compounds, 25° C.
pKi: −log10 of the molar value.

COMPOUND: COC(=O)C12CC(COc3nnc(-c4cc(Cl)ccc4F)cc3Nc3ccnc(NC(=O)[C@H]4C[C@@H](N5CCN(C)CC5)C4)c3)(C1)C2 [Example 126]
pKi: ≥ 10.00
--
COMPOUND: O=C(Nc1cc(Nc2cc(-c3cc(Cl)ccc3F)nnc2SCCO)ncn1)[C@H]1C[C@@H](N2CCN(C3CC3)CC2)C1 [Example 181]
pKi: ≥ 10.00
--
COMPOUND: C[C@@H]1CN(CC(=O)Nc2cc(Nc3cc(-c4cc(Cl)ccc4F)nnc3SCCO)ccn2)C[C@H](C)N1 [Example 193]
pKi: ≥ 10.00
--
COMPOUND: CN1CCN(CCC(=O)Nc2cc(Nc3cc(-c4cc(Cl)ccc4F)nnc3NCc3cccc(O)c3)ccn2)CC1 [Example 101]
pKi: ≥ 10.00
--
COMPOUND: Cc1ccc(F)c(-c2cc(Nc3ccnc(NC(=O)CCN4CCN(C)CC4)c3)c(OCC(F)(F)F)nn2)n1 [Example 68]
pKi: 9.50 to 9.90
--
COMPOUND: CN1CCN([C@H]2C[C@@H](C(=O)Nc3cc(Nc4cc(-c5cc(Cl)ccc5F)nnc4SCCO)ccn3)C2)CC1CCF (mixture of isomers) [Example 172]
pKi: ≥ 10.00
--
COMPOUND: CN1CCCN(CC(=O)Nc2cc(Nc3cc(-c4cc(Cl)ccc4F)nnc3OC3CCOC3)ccn2)CC1 (racemic) [Example 72]
pKi: ≥ 10.00

* * *

Biological target: human ALK5 (Homo sapiens, UniProt P36897)
Construct: human ALK5 (recombinant TGF β1 N-term GST-tagged, 80-end); GST (N)
Experiment: ADP-GLO Kinases assay of ALK5 enzymatic activity
Conditions: purified recombinant human ALK5, TGFβ1 peptide substrate, pIC50 converted to pKi by Cheng-Prusoff, high ATP protocol (15 μM) for very potent compounds, 25° C.

COMPOUND: CN1CCN(CC23CC(C(=O)Nc4cc(Nc5cc(-c6cc(Cl)ccc6F)nnc5SCCO)ncn4)(C2)C3)CC1 [Example 182]
Ki: 0.126 to 0.316 nM

COMPOUND: COCCOc1nnc(-c2cc(Cl)ccc2F)cc1Nc1ccnc(N)c1 [Example 69]
Ki: 0.398 to 3.16 nM

COMPOUND: CN1CCN(CCC(=O)Nc2cc(Nc3cc(-c4cc(Cl)ccc4F)nnc3N(C)Cc3cccc(O)c3)ccn2)CC1 [Example 102]
Ki: 0.126 to 0.316 nM

COMPOUND: CN1CCN(CCC(=O)Nc2cc(Nc3cc(-c4cc(Cl)ccc4F)nnc3OC[C@H]3C[C@@](C)(O)C3)ccn2)CC1 [Example 123]
Ki: 0.126 to 0.316 nM

COMPOUND: CN1CC(COc2nnc(-c3cc(Cl)ccc3F)cc2Nc2ccnc(NC(=O)C3CC3)c2)C1 [Example 44]
Ki: 0.126 to 0.316 nM

COMPOUND: O=C(Nc1cc(Nc2cc(-c3cc(Cl)ccc3F)nnc2OCCN2CCCC2)ccn1)C1CC1 [Example 54]
Ki: ≤ 0.1 nM

COMPOUND: CN1CCN([C@H]2C[C@@H](C(=O)Nc3cc(Nc4cc(-c5cc(Cl)ccc5F)nnc4SC(C)(C)CO)ccn3)C2)CC1 [Example 94]
Ki: ≤ 0.1 nM

COMPOUND: CN1CCN(CCC(=O)Nc2cc(Nc3cc(-c4cc(Cl)ccc4F)nnc3SC(C)(C)CO)ccn2)CC1 [Example 93]
Ki: 0.126 to 0.316 nM

COMPOUND: CN1CCN([C@H]2C[C@@H](C(=O)Nc3cc(Nc4cc(-c5cc(Cl)ccc5F)nnc4N(C)CC4(C)CCOC4=O)ncn3)C2)CC1 (single isomer, unassigned; enantiomer 2) [Example 144]
Ki: ≤ 0.1 nM

COMPOUND: CN1CCN([C@H]2C[C@H](C(=O)Nc3cc(Nc4cc(-c5cc(Cl)ccc5F)nnc4OC4CCOC4)ccn3)C2)CC1 (single isomer, unassigned) [Example 114]
Ki: 0.126 to 0.316 nM

COMPOUND: O=C(Nc1cc(Nc2cc(-c3cc(Cl)ccc3F)nnc2SCCO)ccn1)C12CC(CN3CCN(C4CC4)CC3)(C1)C2 [Example 183]
Ki: 0.126 to 0.316 nM

COMPOUND: CN1CCN(CCC(=O)Nc2cc(Nc3cc(-c4cc(Cl)ccc4F)nnc3SCCO)ncn2)CC1 [Example 176]
Ki: ≤ 0.1 nM

COMPOUND: CN1CCN(CCC(=O)Nc2cc(Nc3cc(-c4cc(Cl)ccc4F)nnc3OCCCS(C)(=O)=O)ccn2)CC1 [Example 7]
Ki: ≤ 0.1 nM

COMPOUND: COC(=O)C12CC(COc3nnc(-c4cc(Cl)ccc4F)cc3Nc3ccnc(NC(=O)CCN4CCN(C)CC4)c3)(C1)C2 [Example 125]
Ki: 0.126 to 0.316 nM

COMPOUND: Nc1cc(Nc2cc(-c3cc(Cl)ccc3F)nnc2OCC(F)(F)F)ccn1 [Example 49]
Ki: 0.398 to 3.16 nM

* * *

Molecular target: human ALK5 (Homo sapiens, UniProt P36897)
Construct: human ALK5 (recombinant TGF β1 N-term GST-tagged, 80-end); GST (N)
Sequence (P36897 80-503 limits assumed): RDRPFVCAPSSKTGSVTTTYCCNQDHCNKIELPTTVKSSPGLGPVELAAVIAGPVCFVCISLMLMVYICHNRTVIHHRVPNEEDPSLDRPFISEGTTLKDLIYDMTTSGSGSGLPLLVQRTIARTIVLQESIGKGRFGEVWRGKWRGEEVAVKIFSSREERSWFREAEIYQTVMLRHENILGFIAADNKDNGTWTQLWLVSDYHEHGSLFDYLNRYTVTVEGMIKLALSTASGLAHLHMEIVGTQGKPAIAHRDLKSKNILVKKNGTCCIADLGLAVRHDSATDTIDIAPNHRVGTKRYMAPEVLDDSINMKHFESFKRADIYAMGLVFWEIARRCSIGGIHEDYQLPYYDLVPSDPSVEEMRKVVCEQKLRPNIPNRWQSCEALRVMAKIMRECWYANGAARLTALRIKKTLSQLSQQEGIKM
Experiment: ADP-GLO Kinases assay of ALK5 enzymatic activity
Details: purified recombinant human ALK5, TGFβ1 peptide substrate, pIC50 converted to pKi by Cheng-Prusoff, high ATP protocol (15 μM) for very potent compounds, 25° C.
Description: The enzymatic activity of compounds of the present invention was monitored measuring the formation of ADP using the ADP-GLO Kinases assay. […] After an incubation of 120 min, the reaction was stopped, and ADP production detected with ADP-Glo kit according to manufacturer's indications. […] After an incubation of 60 min, the kinase reaction was stopped, and ADP production detected with ADP-Glo kit according to manufacturer's indications. […]
Counter-ions that a name gives are not always drawn.

MOLECULE: C[C@@H]1CN(CCC(=O)Nc2cc(Nc3cc(-c4cc(Cl)ccc4F)nnc3SCCO)ncn2)C[C@H](C)N1
Ki: ≤ 0.1 nM

MOLECULE: CN1CCC2(CCN(C(=O)Nc3cc(Nc4cc(-c5cc(Cl)ccc5F)nnc4SCCO)ccn3)CC2)C1
Ki: ≤ 0.1 nM

MOLECULE: C[C@@H]1CN(CCC(=O)Nc2cc(Nc3cc(-c4cc(Cl)ccc4F)nnc3SCC[Si](C)(C)C)ncn2)C[C@H](C)N1
Ki: 0.126 to 0.316 nM

MOLECULE: CN1CCN(CCC(=O)Nc2cc(Nc3cc(-c4cc(Cl)ccc4F)nnc3N3CCO[C@@H](C(=O)O)C3)ccn2)CC1 (stereo in doubt) [Example 134, lithium salt]
Ki: 0.126 to 0.316 nM

MOLECULE: CN1CCN(CCC(=O)Nc2cc(Nc3cc(-c4cc(Cl)ccc4F)nnc3SCCCO)ccn2)CC1
Ki: ≤ 0.1 nM

MOLECULE: CN1CCN(CCC(=O)Nc2cc(Nc3cc(-c4cc(Cl)ccc4F)nnc3N(C)CCC(O)C(F)(F)F)ccn2)CC1 (stereo not drawn)
Ki: ≤ 0.1 nM

MOLECULE: COC(=O)[C@H]1CN(c2nnc(-c3cc(Cl)ccc3F)cc2Nc2ccnc(NC(=O)CCN3CCN(C)CC3)c2)CCO1 (stereo in doubt)
Ki: 0.126 to 0.316 nM

MOLECULE: CN1CCN(CCC(=O)Nc2cc(Nc3cc(-c4cc(Cl)ccc4F)nnc3OC3CCOC3)ccn2)CC1 (single isomer, unassigned)
Ki: ≤ 0.1 nM

MOLECULE: CN1CCN(CCC(=O)Nc2cc(Nc3cc(-c4cc(Cl)ccc4F)nnc3N(C)CC3(C)CCOC3=O)ncn2)CC1 (single isomer, unassigned; enantiomer 1) [Example 138]
Ki: ≤ 0.1 nM

MOLECULE: CN1CCN([C@H]2C[C@@H](C(=O)Nc3cc(Nc4cc(-c5cc(Cl)ccc5F)nnc4N(C)C)ccn3)C2)CC1
Ki: ≤ 0.1 nM

MOLECULE: O=C(Nc1cc(Nc2cc(-c3cc(Cl)ccc3F)nnc2SCCO)ccn1)C1CC(N2CCC(F)(F)C(CO)C2)C1 (racemic)
Ki: ≤ 0.1 nM

MOLECULE: CN1CCN(CCC(=O)Nc2cc(Nc3cc(-c4cc(Cl)ccc4F)nnc3N(C)CC3(C)CCOC3=O)ncn2)CC1 (racemic) [Example 137]
Ki: ≤ 0.1 nM
